Target: HGF (hepatocyte growth factor/scatter factor) (UniProt P14210;P14210 P14210:32-494,P14210:495-728)
Sequence (P14210 32-494, chain 1 of 2): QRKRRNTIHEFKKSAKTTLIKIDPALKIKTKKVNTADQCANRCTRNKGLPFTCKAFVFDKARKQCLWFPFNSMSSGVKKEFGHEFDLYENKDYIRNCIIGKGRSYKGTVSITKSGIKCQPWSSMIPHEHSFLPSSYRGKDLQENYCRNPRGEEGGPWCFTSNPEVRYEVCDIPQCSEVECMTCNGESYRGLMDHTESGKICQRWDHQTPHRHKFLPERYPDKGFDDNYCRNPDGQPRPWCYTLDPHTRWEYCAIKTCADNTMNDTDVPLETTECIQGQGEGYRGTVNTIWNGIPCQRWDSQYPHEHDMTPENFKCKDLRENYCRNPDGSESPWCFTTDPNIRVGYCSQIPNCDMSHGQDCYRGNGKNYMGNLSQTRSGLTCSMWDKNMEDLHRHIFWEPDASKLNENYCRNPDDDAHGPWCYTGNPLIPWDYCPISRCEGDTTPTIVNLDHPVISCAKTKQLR
Sequence (P14210 495-728, chain 2 of 2): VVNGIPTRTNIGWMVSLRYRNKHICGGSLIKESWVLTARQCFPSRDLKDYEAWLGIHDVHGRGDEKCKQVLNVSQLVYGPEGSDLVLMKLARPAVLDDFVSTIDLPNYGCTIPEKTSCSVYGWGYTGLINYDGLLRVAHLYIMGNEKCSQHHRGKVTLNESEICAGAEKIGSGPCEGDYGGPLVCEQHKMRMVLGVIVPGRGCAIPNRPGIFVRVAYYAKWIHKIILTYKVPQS
Assay: filter; HBSMC, 37C
Details: tags: R&D Systems
Protocol: In binding reactions, RNA concentrations were kept as low as possible—between 1 and 20 pM—to ensure equilibrium in conditions of protein excess. Oligonucleotides were incubated for 15 minutes at 37° C. with varying amounts of the protein in 43 µl of the binding buffer. […] The amount of radioactivity retained on the filters was quantitated by imaging. The radioactivity that bound to filters in the absence of protein was used for background correction. […]
Would you kindly list pKd for each of these binders?
The read-out pKd is expressed as -log10 of concentration in moles per litre.

# input binder: 11-104 (ssRNA, 2'-F pyrimidines) RNA: GGGAGGACGAUGCGGGUUUGAGUGAUGUCGUCUUGUCCCGCCUGCCAGACGACUCGCCCGA ; wanted: its pKd
10.04

# input binder: 10-57 (ssRNA, 2'-F pyrimidines) RNA: GGGAGAUAAGAAUAAACGCUCAACGAGCCUCCUACCGUUUAGGUACCAUCUUGUUCGACAGGAGGCUCACAACAGGC ; wanted: its pKd
9.85

# input binder: 10-36 (ssRNA, 2'-F pyrimidines) RNA: GGGAGAUAAGAAUAAACGCUCAACGUUAGCAUCUGAACGAUGCCCAGCCUCAAUUCGACAGGAGGCUCACAACAGGC ; wanted: its pKd
8.71

# input binder: 10-29 (ssRNA, 2'-F pyrimidines) RNA: GGGAGAUAAGAAUAAACGCUCAAUCUGUUGGCGUCGUUCUCCUGACCCUCCUCUUCGACAGGAGGCUCACAACAGGC ; wanted: its pKd
8.76

# input binder: 10-63 (ssRNA, 2'-F pyrimidines) RNA: GGGAGAUAAGAAUAAACGCUCAAUGUGAUGUGAGGGCGUGCUUCCUAACGGUGUUCGACAGGAGGCUCACAACAGGC ; wanted: its pKd
9.72

# input binder: 8-3 (ssRNA, 2'-F pyrimidines) RNA: GGGAGGACGAUGCGGAUCCCGCGACCAGGGCGUUUCUUCCUCGUCCCAGACGACUCGCCCGA ; wanted: its pKd
9.89

# input binder: 10-13 (ssRNA, 2'-F pyrimidines) RNA: GGGAGAUAAGAAUAAACGCUCAAGAUCUGUUGGCGUGUCUACCCGACCCUCCUUUCGACAGGAGGCUCACAACAGGC ; wanted: its pKd
9.14

# input binder: 8-215 (ssRNA, 2'-F pyrimidines) RNA: GGGAGGACGAUGCGGCGUGAGCCUAUUUAUGUCAUCAUGUCUGGUCAGACGACUCGCCCGA ; wanted: its pKd
10.11

# input binder: 10-28 (ssRNA, 2'-F pyrimidines) RNA: GGGAGAUAAGAAUAAACGCUCAACCUGUUCUGAACGCAAAAUGGCGUGGUGGCUUCGACAGGAGGCUCACAACAGGC ; wanted: its pKd
9.07

# input binder: 8-123 (ssRNA, 2'-F pyrimidines) RNA: GGGAGGACGAUGCGGUCCCGAGUUUGAGGGCGUUUCUUCUUCGUCCAGACGACUCGCCCGA ; wanted: its pKd
9.68

Values were extracted from patent US6344321.
